// data source = the NIST ThermoML archive (doi:10.1021/je060490w)

Conditions: 308.15 K, Pendant drop shape

{"molecule": "COC(C)(C)OC [3,3-dimethyl-2,4-dioxapentane]", "surface tension liquid-gas / mN/m": 20.43}
{"molecule": "Cc1ccc(C)c(C)c1 [1,2,4-trimethylbenzene]", "surface tension liquid-gas / mN/m": 28.24}
{"molecule": "CCOC(C)OCC [1,1-diethoxyethane]", "surface tension liquid-gas / mN/m": 19.89}
{"molecule": "Cc1cc(C)cc(C)c1 [1,3,5-trimethylbenzene]", "surface tension liquid-gas / mN/m": 27.21}

* * *

Conditions: 313.15 K; 101.33 kPa; Liquid
valueType: mass density (kg/m3)

{"smilesData": "Cc1cc(C)cc(C)c1", "readoutUnits": "kg/m3", "numericValue": 848.82}
{"smilesData": "CCOC(C)OCC", "readoutUnits": "kg/m3", "numericValue": 806.18}
{"smilesData": "Cc1ccc(C)c(C)c1", "readoutUnits": "kg/m3", "numericValue": 859.58}
{"smilesData": "COC(C)(C)OC", "readoutUnits": "kg/m3", "numericValue": 828.99}

* * *

Reported mass density values follow for various compounds
Settings: 298.15 K; 101.33 kPa; Liquid
Numbers after ± are expanded uncertainties.

{"smilesData": "Cc1cc(C)cc(C)c1", "mass density": "861.12 ± 0.59 kg/m3"}
{"smilesData": "COC(C)(C)OC", "mass density": "845.09 ± 0.67 kg/m3"}
{"smilesData": "Cc1ccc(C)c(C)c1", "mass density": "871.71 ± 0.59 kg/m3"}
{"smilesData": "CCOC(C)OCC", "mass density": "821.96 ± 0.7 kg/m3"}

* * *

Conditions: 298.15 K, Pendant drop shape
valueType: surface tension liquid-gas (mN/m)

{"compound": "COC(C)(C)OC [3,3-dimethyl-2,4-dioxapentane]", "numericValue": 21.46}
{"compound": "Cc1ccc(C)c(C)c1 [1,2,4-trimethylbenzene]", "numericValue": 29.3}
{"compound": "Cc1cc(C)cc(C)c1 [1,3,5-trimethylbenzene]", "numericValue": 28.05}
{"compound": "CCOC(C)OCC [1,1-diethoxyethane]", "numericValue": 20.88}

* * *

Measured mass density by item
Settings: 308.15 K; 101.33 kPa; Liquid

{"smilesData": "Cc1cc(C)cc(C)c1", "readoutUnits": "kg/m3", "mass density": 852.94}
{"smilesData": "Cc1ccc(C)c(C)c1", "readoutUnits": "kg/m3", "mass density": 863.68}
{"smilesData": "COC(C)(C)OC", "readoutUnits": "kg/m3", "mass density": 834.41}
{"smilesData": "CCOC(C)OCC", "readoutUnits": "kg/m3", "mass density": 811.48}
